Assay: Plasma concentration versus time of Compound I and metabolite Compound III in patients dosed QD or BID with Form B of Compound II plus fulvestrant
Format: in vivo, human
Details: human, plasma, oral, 400 mg, 400 mg QD of Form B, Day 1, 4.0 h, Median; read-out: Compound I Concentration
observed-property: concentration at 4 h (ng/mL)

| record-smiles | reported-measurement |
| --- | --- |
| CC(C)N1CCN(c2ccc(Nc3ncc4cc5n(c4n3)C3(CCCCC3)CNC5=O)nc2)CC1 | 13.1 |

----------
Experiment: clinical
Details: human, in vivo, 300 mg

| record-smiles | measurement-units | AUC(0-t) |
| --- | --- | --- |
| CC(C)N1CCN(c2ccc(Nc3ncc4cc5n(c4n3)C3(CCCCC3)CNC5=O)nc2)CC1 | ng·h/mL | 592 |

Just for reference, patent US11357779B2 is where these values come from.
